tested on: Escherichia coli TOP10; experiment: shrunken log2 fold change of peptide-encoding DNA abundance (4.5 h post-induction vs induction); higher = less antimicrobial activity (less host growth inhibition); details: time post-induction: 4.5 h; library: site-saturation at positions 5, 18, 19, 20;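 also: peptides expressed intracellularly from a pBAD plasmid library in pooled LB shake-flask culture, induced with 0.3% L-arabinose, DNA abundance read by NGS, three biological replicates, DESeq2 with apeglm shrinkage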
property-label: shrunken log2 fold change
Respond using a number only.

Reference set (3 entries):
RRIRMRPPRLPRPRPRPEPSPRP :: 2.72
RRIRLRPPRLPRPRPRPTSPPRP :: -0.0576
RRIRRRPPRLPRPRPRPNRNPRP :: 0.0469

So what does the record say about shrunken log2 fold change for `RRIRDRPPRLPRPRPRPQEDPRP` ?
0.399

Form field: reported shrunken log2 fold change of `RRIRDRPPRLPRPRPRPWMPPRP`
-0.11

// returns reported shrunken log2 fold change for input `RRIRTRPPRLPRPRPRPCISPRP`
-0.503

What measured shrunken log2 fold change goes with `RRIRIRPPRLPRPRPRPASLPRP` ?
-0.0288

Which value of shrunken log2 fold change has been reported for `RRIRARPPRLPRPRPRPHSYPRP` in the records?
0.0128

Quick one: shrunken log2 fold change for `RRIRPRPPRLPRPRPRPYEWPRP` ?
-0.874

So what does the record say about shrunken log2 fold change for `RRIRFRPPRLPRPRPRPNNGPRP` ?
-0.151

// returns reported shrunken log2 fold change for input `RRIRQRPPRLPRPRPRPSCDPRP`
0.0694

Find the recorded shrunken log2 fold change belonging to `RRIRCRPPRLPRPRPRPWSWPRP` and report it.
0.0159

Would you mind telling me what shrunken log2 fold change value was observed for `RRIRPRPPRLPRPRPRPGCSPRP` ?
0.266

Could you tell me which shrunken log2 fold change is on file for `RRIRLRPPRLPRPRPRPIKDPRP` ?
-0.374

Consider the sequence shown here: `RRIRGRPPRLPRPRPRPTLVPRP` What is its recorded shrunken log2 fold change?
1.87

If you can, please state the reported shrunken log2 fold change value of `RRIRHRPPRLPRPRPRPSSMPRP` .
-0.474

Please report the recorded shrunken log2 fold change for `RRIRKRPPRLPRPRPRPWYIPRP` .
-0.568

Name the recorded shrunken log2 fold change for `RRIRFRPPRLPRPRPRPGENPRP` .
0.995

If you can, please state the reported shrunken log2 fold change value of `RRIRHRPPRLPRPRPRPDRSPRP` .
-0.0222

Value lookup for shrunken log2 fold change; key = `RRIRIRPPRLPRPRPRPAGSPRP`
-0.0214

Quick one: shrunken log2 fold change of `RRIRLRPPRLPRPRPRPAQHPRP` ?
-0.132

What shrunken log2 fold change value was documented for this sequence, `RRIRPRPPRLPRPRPRPENWPRP` ?
0.264

Fill blank: measured shrunken log2 fold change of the sequence `RRIRYRPPRLPRPRPRPHCAPRP` is ____.
-0.544

Name the recorded shrunken log2 fold change for `RRIRTRPPRLPRPRPRPQWMPRP` .
-0.291

What shrunken log2 fold change value was documented for this sequence, `RRIRARPPRLPRPRPRPFTYPRP` ?
-0.0975
